Reference source for all entries: patent US5118811A

- experimentalTarget: prolyl endopeptidase (Rattus norvegicus, UniProt O70196)
- Construct: prolyl endopeptidase extracted from rat brain; from tissue; host or cells: rat brain
- Sequence (O70196 whole entry): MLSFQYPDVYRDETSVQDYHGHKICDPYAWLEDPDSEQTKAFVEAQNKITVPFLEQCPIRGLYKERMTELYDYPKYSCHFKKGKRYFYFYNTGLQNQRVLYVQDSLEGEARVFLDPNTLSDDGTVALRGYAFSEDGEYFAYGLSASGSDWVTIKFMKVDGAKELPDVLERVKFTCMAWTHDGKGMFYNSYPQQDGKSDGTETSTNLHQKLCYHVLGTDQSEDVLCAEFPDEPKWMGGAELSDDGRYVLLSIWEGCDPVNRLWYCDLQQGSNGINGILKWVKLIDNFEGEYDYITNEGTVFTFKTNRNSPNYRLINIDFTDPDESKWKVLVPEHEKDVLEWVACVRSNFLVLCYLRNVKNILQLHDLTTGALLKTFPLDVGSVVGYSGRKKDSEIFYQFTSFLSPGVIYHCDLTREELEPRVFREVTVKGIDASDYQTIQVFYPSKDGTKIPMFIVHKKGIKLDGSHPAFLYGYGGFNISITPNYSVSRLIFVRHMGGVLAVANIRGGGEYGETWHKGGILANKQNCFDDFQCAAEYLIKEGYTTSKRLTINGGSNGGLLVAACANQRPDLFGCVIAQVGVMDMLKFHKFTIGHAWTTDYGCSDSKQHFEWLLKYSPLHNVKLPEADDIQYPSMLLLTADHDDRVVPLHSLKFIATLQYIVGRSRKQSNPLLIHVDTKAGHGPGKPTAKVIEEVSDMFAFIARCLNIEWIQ
- experimentDescription: Prolyl Endopeptidase-Inhibitory Activity
- Assay type: biochemical
- appliedConditions: 1 × 10^-6 M; read-out: Inhibition rate, prolyl endopeptidase

- compound: "N#C[C@@H]1CCCN1C(=O)CCC(=O)NCc1ccc(Cl)cc1"
  inhibition at 1 µM / %: 100
- compound: "CC(=O)ON=C[C@@H]1CCCN1C(=O)CCC(=O)NCc1ccc(Cl)cc1"
  inhibition at 1 µM / %: 100
- compound: "O=C[C@@H]1CCCN1C(=O)CCC(=O)NCCCN1CCCC1=O"
  inhibition at 1 µM / %: 97
- compound: "CC(=O)ON=C[C@@H]1CCCN1C(=O)[C@@H]1CCCN1C(=O)OCc1ccccc1"
  inhibition at 1 µM / %: 100
